Exercise: state measured inhibition at 10 µM for each of the compounds provided.
Test system: ADP-induced aggregation in rabbit platelet
Assay: Inhibition effect on ADP-induced aggregation in rabbit platelet
Format: cell-based
Details: Oryctolagus cuniculus, Platelet, 10^-5 M test compound solution; rabbit platelet (PRP)
Method: The aggregation inhibitory activity was determined using an AG-II type aggregometer (made by Bryston Manufacturing Co.). […] The number of platelets in the PRP was counted in accordance with the Brecher-Clonkite Method, and the PRP was diluted with the PPP to prepare a PRP sample containing platelets in an amount of 300,000/[…] for an adenosine diphosphate (ADP)-induced aggregation test and a PRP sample containing platelets in an amount of 450,000/[…] for a collagen-induced aggregation test. […]
Give bare numbers, in %.

Answered examples (3):
- COMPOUND: "O=C(O)CCCCCCOc1ccc2c(c1)CCC(=O)N2"
  inhibition at 10 µM / %: 8
- COMPOUND: "CCOC(=O)C(C)Oc1ccc2[nH]c(=O)ccc2c1 (stereo not drawn)"
  inhibition at 10 µM / %: 54
- COMPOUND: "CCCCCOC(=O)C(C)Oc1ccc2c(c1)CCC(=O)N2 (stereo not drawn)"
  inhibition at 10 µM / %: 79

Record inhibition at 10 µM for all entries; do not skip any.
1. CCCCCOC(=O)CCCOc1ccc2c(c1)CCC(=O)N2
2. CCOC(=O)C(C)Oc1ccc2c(c1)CCC(=O)N2 (stereo not drawn)
3. CCOC(=O)CCCOc1cccc2c1CCC(=O)N2

[58, 25, 18]

###

Exercise: state measured inhibition at 1 µM for each of the molecules provided.
Tested on: collagen-induced aggregation in rabbit platelet
Assay: Inhibition effect on collagen-induced aggregation in rabbit platelet
Format: cell-based
Settings: Oryctolagus cuniculus, Platelet, 10^-6 M test compound solution; rabbit platelet (PRP)
Numbers only, in %.

Answered examples (3):
- MOLECULE: "CCOC(=O)C(C)Oc1cccc2c1NC(=O)CC2 (centres unmarked)"
  OBSERVED_RESULT: 2
- MOLECULE: "CCCCCOC(=O)C(C)Oc1ccc2c(c1)CCC(=O)N2 (centres unmarked)"
  OBSERVED_RESULT: 0
- MOLECULE: "CCOC(=O)C(C)Oc1ccc2c(c1)CCC(=O)N2 (centres unmarked)"
  OBSERVED_RESULT: 2

Record inhibition at 1 µM for all entries; do not skip any.
1. CCCCCOC(=O)CCCOc1ccc2c(c1)CCC(=O)N2
2. CCOC(=O)CCCOc1cccc2c1CCC(=O)N2
3. O=C(O)CCCCCCOc1ccc2c(c1)CCC(=O)N2

[6, 5, 2]

###

Test system: ADP-induced aggregation in rabbit platelet
Assay: Inhibition effect on ADP-induced aggregation in rabbit platelet
Assay type: cell-based
Conditions: Oryctolagus cuniculus, Platelet, 10^-5 M test compound solution; rabbit platelet (PRP)
Exercise: state measured inhibition at 10 µM for each of the compounds provided.
Answers are plain numbers, in %.

Answered examples (2):
- COMPOUND: "CCOC(=O)CCCCCCOc1ccc2c(c1)CCC(=O)N2 [K]"
  OBSERVED_RESULT: 15
- COMPOUND: "CCOC(=O)CCCOc1ccc2c(c1)CCC(=O)N2 [E]"
  OBSERVED_RESULT: 97

Read the next record carefully.
inhibition at 10 µM reading for CC(C)OC(=O)C(C)Oc1ccc2[nH]c(=O)ccc2c1 (stereo not drawn) [G] : 38
